Measured Target: binding partner of C5A (XPA23)
Assay Comment: Biacore
Let's look at some binders and their measured log10(fold affinity vs original).
All values: log10 fold affinity vs original [fold].

Look over these answered cases.
>>> observed_measurement("C5A (XPA23) VH S54F (antibody, V domains shown) VH: EVQLLESGGGLVQPGGSLRLSCAASGFTFSKYFMFWVRQAPGKGLEWVSVISPFGGMTRYADSVKGRFTISRDNSKNTLYLQMNSLRAEDTAVYYCARVGYGGNSDYWGQGTLVTVSS VL: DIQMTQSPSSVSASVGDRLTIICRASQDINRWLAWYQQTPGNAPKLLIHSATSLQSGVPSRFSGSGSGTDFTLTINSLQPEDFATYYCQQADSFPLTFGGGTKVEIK")
-0.06
>>> observed_measurement("C5A (XPA23) VH I51R (antibody, V domains shown) VH: EVQLLESGGGLVQPGGSLRLSCAASGFTFSKYFMFWVRQAPGKGLEWVSVRSPSGGMTRYADSVKGRFTISRDNSKNTLYLQMNSLRAEDTAVYYCARVGYGGNSDYWGQGTLVTVSS VL: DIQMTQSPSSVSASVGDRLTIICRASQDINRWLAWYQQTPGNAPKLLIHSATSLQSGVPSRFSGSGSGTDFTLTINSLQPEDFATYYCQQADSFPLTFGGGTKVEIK")
-1.00
>>> observed_measurement("C5A (XPA23) VH Y32F (antibody, V domains shown) VH: EVQLLESGGGLVQPGGSLRLSCAASGFTFSKFFMFWVRQAPGKGLEWVSVISPSGGMTRYADSVKGRFTISRDNSKNTLYLQMNSLRAEDTAVYYCARVGYGGNSDYWGQGTLVTVSS VL: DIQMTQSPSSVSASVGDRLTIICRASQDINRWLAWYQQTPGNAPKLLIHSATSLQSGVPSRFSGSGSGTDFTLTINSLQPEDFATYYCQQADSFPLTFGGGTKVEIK")
-0.12
>>> observed_measurement("C5A (XPA23) VH I51K (antibody, V domains shown) VH: EVQLLESGGGLVQPGGSLRLSCAASGFTFSKYFMFWVRQAPGKGLEWVSVKSPSGGMTRYADSVKGRFTISRDNSKNTLYLQMNSLRAEDTAVYYCARVGYGGNSDYWGQGTLVTVSS VL: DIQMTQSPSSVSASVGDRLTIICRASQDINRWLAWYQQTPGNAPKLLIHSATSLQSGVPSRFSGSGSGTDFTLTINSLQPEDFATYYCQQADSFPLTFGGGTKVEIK")
-0.96
>>> observed_measurement("C5A (XPA23) VH G55R (antibody, V domains shown) VH: EVQLLESGGGLVQPGGSLRLSCAASGFTFSKYFMFWVRQAPGKGLEWVSVISPSRGMTRYADSVKGRFTISRDNSKNTLYLQMNSLRAEDTAVYYCARVGYGGNSDYWGQGTLVTVSS VL: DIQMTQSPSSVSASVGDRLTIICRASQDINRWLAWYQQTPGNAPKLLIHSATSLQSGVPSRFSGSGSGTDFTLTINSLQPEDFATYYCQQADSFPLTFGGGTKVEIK")
-0.02
>>> observed_measurement("C5A (XPA23) VH P53N (antibody, V domains shown) VH: EVQLLESGGGLVQPGGSLRLSCAASGFTFSKYFMFWVRQAPGKGLEWVSVISNSGGMTRYADSVKGRFTISRDNSKNTLYLQMNSLRAEDTAVYYCARVGYGGNSDYWGQGTLVTVSS VL: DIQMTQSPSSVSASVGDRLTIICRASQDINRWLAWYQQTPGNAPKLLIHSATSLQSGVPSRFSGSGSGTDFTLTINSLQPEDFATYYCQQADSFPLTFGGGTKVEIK")
-1.22
>>> observed_measurement("C5A (XPA23) VH F35Y (antibody, V domains shown) VH: EVQLLESGGGLVQPGGSLRLSCAASGFTFSKYFMYWVRQAPGKGLEWVSVISPSGGMTRYADSVKGRFTISRDNSKNTLYLQMNSLRAEDTAVYYCARVGYGGNSDYWGQGTLVTVSS VL: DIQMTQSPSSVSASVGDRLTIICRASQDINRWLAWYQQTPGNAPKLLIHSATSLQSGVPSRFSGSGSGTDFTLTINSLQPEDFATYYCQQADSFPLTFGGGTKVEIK")
-0.07
>>> observed_measurement("C5A (XPA23) VH D106K (antibody, V domains shown) VH: EVQLLESGGGLVQPGGSLRLSCAASGFTFSKYFMFWVRQAPGKGLEWVSVISPSGGMTRYADSVKGRFTISRDNSKNTLYLQMNSLRAEDTAVYYCARVGYGGNSKYWGQGTLVTVSS VL: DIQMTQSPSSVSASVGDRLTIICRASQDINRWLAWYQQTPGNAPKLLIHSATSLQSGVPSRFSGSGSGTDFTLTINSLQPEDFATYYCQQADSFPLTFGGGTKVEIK")
-1.40
>>> observed_measurement("C5A (XPA23) VH M57S (antibody, V domains shown) VH: EVQLLESGGGLVQPGGSLRLSCAASGFTFSKYFMFWVRQAPGKGLEWVSVISPSGGSTRYADSVKGRFTISRDNSKNTLYLQMNSLRAEDTAVYYCARVGYGGNSDYWGQGTLVTVSS VL: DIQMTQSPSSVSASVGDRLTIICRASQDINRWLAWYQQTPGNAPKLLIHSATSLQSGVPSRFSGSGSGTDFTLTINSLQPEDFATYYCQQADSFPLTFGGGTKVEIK")
-1.40

// switching to the query binder
log10(fold affinity vs original) lookup needed for C5A (XPA23) VH G55S (antibody, V domains shown) VH: EVQLLESGGGLVQPGGSLRLSCAASGFTFSKYFMFWVRQAPGKGLEWVSVISPSSGMTRYADSVKGRFTISRDNSKNTLYLQMNSLRAEDTAVYYCARVGYGGNSDYWGQGTLVTVSS VL: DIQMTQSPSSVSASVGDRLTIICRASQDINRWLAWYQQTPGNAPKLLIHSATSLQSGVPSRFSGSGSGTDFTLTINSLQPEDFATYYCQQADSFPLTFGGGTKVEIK , thanks.
0.01
